- study target: T1, 4H4073-bH
- T1 chain: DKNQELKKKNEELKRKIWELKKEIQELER
- assay name: two-hybrid library CCNG1;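 note: natural log of median RNA to DNA barcode read ratio; higher means stronger binding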
observable: interaction score
Respond using a number only.

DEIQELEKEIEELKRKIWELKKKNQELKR [4H112-bH]
1.39
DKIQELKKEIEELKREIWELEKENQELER [4H2627-bH]
1.38

Then there is this binder:
Bench note: what interaction score did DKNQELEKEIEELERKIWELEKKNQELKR [4H3112-bH] show? 1.57

The values you see were collected from paper PMC10397247.
